Biological target: human recombinant HDAC6 (Homo sapiens)
Test: HDAC6 enzyme activity inhibition assay (in vitro, fluorimetric)
Details: human recombinant HDAC6, fluorimetric kit, same protocol as HDAC1
OUTCOME MEASURE: pIC50
Scale explanation: pIC50 corresponds to minus log10 of a concentration expressed in moles per litre.

Sample records with pIC50:
input: Reported pIC50, molecule C[C@@H]1CN(CC2CCC(C(=O)NO)CC2)C[C@H](C)N1Cc1ccccc1 (stereo partly shown) [Compound 822] : ____
output: 6.55

input: Please answer likewise for C[C@@H]1CN(Cc2ccc(C(=O)NO)cc2)C[C@H](C)N1C(=O)C1CC1 [Compound 295]
output: 7.10

input: Please answer likewise for C[C@@H]1CN(C(=O)c2cccc(C3=CCOCC3)c2)C[C@H](C)N1Cc1ccc(C(=O)NO)cc1 [Compound 259]
output: 6.40

input: Please answer likewise for C[C@@H]1CN(C(=O)c2cccnc2)C[C@H](C)N1Cc1ccc(C(=O)NO)cc1 [Compound 112]
output: 6.81

input: Please answer likewise for C[C@@H]1CN(C(=O)c2ccccc2C2=CCC(C)(C)CC2)C[C@H](C)N1Cc1ccc(C(=O)NO)cc1 [Compound 280]
output: 6.41

---
input: Reported pIC50, molecule C[C@@H]1CN(Cc2ccc(C(=O)NO)cc2)C[C@H](C)N1C(=O)c1ccc(CN2CCN(C)CC2)cc1 [Compound 462] : ____
output: 6.58

---

Entries and their IC50 values follow.
Target: human recombinant HDAC1 (Homo sapiens)
Sequence (Q13547 whole entry): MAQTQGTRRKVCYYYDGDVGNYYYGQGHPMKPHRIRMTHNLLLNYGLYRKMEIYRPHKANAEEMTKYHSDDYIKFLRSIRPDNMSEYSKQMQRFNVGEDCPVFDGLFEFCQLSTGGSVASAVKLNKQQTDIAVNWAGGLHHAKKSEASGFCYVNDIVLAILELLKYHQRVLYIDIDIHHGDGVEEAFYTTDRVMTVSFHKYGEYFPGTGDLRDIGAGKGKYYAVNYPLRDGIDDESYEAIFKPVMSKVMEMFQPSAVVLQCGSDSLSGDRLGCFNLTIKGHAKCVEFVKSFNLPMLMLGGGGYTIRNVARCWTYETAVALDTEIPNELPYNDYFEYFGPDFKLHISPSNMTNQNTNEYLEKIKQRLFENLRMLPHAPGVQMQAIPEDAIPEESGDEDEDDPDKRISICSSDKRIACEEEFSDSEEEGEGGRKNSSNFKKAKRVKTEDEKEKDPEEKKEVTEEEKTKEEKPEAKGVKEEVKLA
Test: HDAC1 enzyme activity inhibition assay (in vitro, fluorimetric)
Settings: human recombinant HDAC1, fluorimetric kit, 30° C. 60 minutes
Write down the numeric answer in µM and omit the unit.

Sample records with IC50:
input: API: value(readout=IC50, system=human recombinant HDAC1 (Homo sapiens)) for record C[C@@H]1CN(C(=O)Nc2ccc3c(ccn3C)c2)C[C@H](C)N1Cc1ccc(C(=O)NO)cc1
output: 0.8

input: Please answer likewise for C[C@@H]1CN(C(=O)c2ccc(CCC(=O)NO)cc2)C[C@H](C)N1Cc1ccccc1
output: 4.1

input: Please answer likewise for C[C@@H]1CN(Cc2cccc(C(F)(F)F)c2)C[C@H](C)N1Cc1ccc(C(=O)NO)cc1
output: 5.5

input: Please answer likewise for C[C@@H]1CN(CCCCCC(=O)NO)C[C@H](C)N1Cc1ccccc1
output: 8.4

input: Please answer likewise for C[C@@H]1CN(Cc2ccccc2-c2ccncc2)C[C@H](C)N1Cc1ccc(C(=O)NO)cc1
output: 3.3

input: Please answer likewise for C[C@@H]1CN(C(=O)Nc2cccc(-n3cccc3)c2)C[C@H](C)N1Cc1ccc(C(=O)NO)cc1
output: 0.3

input: Please answer likewise for C[C@@H]1CN(Cc2ccc3ccccc3c2)C[C@H](C)N1Cc1ccc(C(=O)NO)cc1
output: 2.8

input: Please answer likewise for C[C@@H]1CN(Cc2cc3cc(C(=O)NO)ccc3o2)C[C@H](C)N1Cc1ccccc1
output: 3.9

input: Please answer likewise for C[C@@H]1CN(Cc2ccc(C(=O)NO)cc2)C[C@H](C)N1C(=O)c1ccccc1C1=CCC(C)(C)CC1
output: 10.7

input: Please answer likewise for C[C@@H]1CN(Cc2ccc(C(=O)NO)cc2)C[C@H](C)N1C(=O)c1cccc(CN2CCN(CC(F)(F)F)CC2)c1
output: 9.6

---
input: API: value(readout=IC50, system=human recombinant HDAC1 (Homo sapiens)) for record C[C@@H]1CN(Cc2ccc(C(=O)NO)cc2)C[C@H](C)N1C(=O)Nc1cccc(Cl)c1
output: 12.4

input: Please answer likewise for C[C@@H]1CN(Cc2ccccc2C2=CCOCC2)C[C@H](C)N1Cc1ccc(C(=O)NO)cc1
output: 5.1

input: Please answer likewise for C[C@@H]1CN(C(=O)c2ccccc2-c2ccoc2)C[C@H](C)N1Cc1ccc(C(=O)NO)cc1
output: 10.4

input: Please answer likewise for CCN(CC)Cc1cccc(CN2C[C@@H](C)N(Cc3ccc(C(=O)NO)cc3)[C@@H](C)C2)c1
output: 6.57

---

Entries and their IC50 values follow.
Target: human recombinant HDAC1 (Homo sapiens)
Test: HDAC1 enzyme activity inhibition assay (in vitro, fluorimetric)
Conditions: human recombinant HDAC1, fluorimetric kit, 30° C. 60 minutes
Protocol: In order to examine the HDAC6 selectivity of the compounds of formula 1 of the present invention by HDAC1 and HDAC6 enzymatic activity inhibition assays, an experiment was performed using a conventional substance as a control. HDAC enzyme activity was measured using a HDAC Fluorimetric Drug Discovery Kit (BML-AK511, 516, Enzo Life Science). […] Based on the resulting values, each IC50 value was calculated using GraphPad Prism4.0 program.
Write down the numeric answer in nM and omit the unit.

Sample records with IC50:
input: API: value(readout=IC50, system=human recombinant HDAC1 (Homo sapiens)) for record COc1cccc(NC(=O)N2C[C@@H](C)N(Cc3ccc(C(=O)NO)cc3)[C@@H](C)C2)c1 [Compound 164]
output: 500

input: Please answer likewise for C[C@@H]1CN(C(=O)NCc2cccc(F)c2)C[C@H](C)N1Cc1ccc(C(=O)NO)cc1 [Compound 231]
output: 1500

Continue with the compound presented below.
input: API: value(readout=IC50, system=human recombinant HDAC1 (Homo sapiens)) for record C[C@@H]1CN(Cc2ccc(C(=O)NO)cc2)C[C@H](C)N1C(=O)c1ccccc1Cl [Compound 120]
output: 5500

---

Target: human recombinant HDAC6 (Homo sapiens, UniProt Q9UBN7)
Experiment: HDAC6 enzyme activity inhibition assay (in vitro, fluorimetric)
Conditions: human recombinant HDAC6, fluorimetric kit, same protocol as HDAC1
Cut-off 300 nM on IC50: below means fulfilled, at or above means not fulfilled.

Would you please look over these solved cases?
input: Consider C[C@@H]1CN(Cc2ccc(C(=O)NO)cc2)C[C@H](C)N1C(=O)c1ccc(CN2CCN(S(C)(=O)=O)CC2)cc1 . Does its IC50 lie strictly below 300 nM?
output: fulfilled

input: Please answer likewise for C[C@@H]1CN(Cc2ccc(C(=O)NO)cc2)C[C@H](C)N1C(=O)c1cccc(CN2CCN(CC(F)(F)F)CC2)c1
output: fulfilled

input: Please answer likewise for C[C@@H]1CN(C(=O)NCc2ccccc2)C[C@H](C)N1Cc1ccc(C(=O)NO)cc1
output: not fulfilled

input: Please answer likewise for COc1ccc(NC(=O)N2C[C@@H](C)N(Cc3ccc(C(=O)NO)cc3)[C@@H](C)C2)cc1
output: not fulfilled

input: Please answer likewise for C[C@@H]1CN(Cc2ccc(C(=O)NO)cc2)C[C@H](C)N1Cc1ccc(OCC2CCN(CC(C)(C)F)CC2)cc1
output: fulfilled

input: Please answer likewise for C[C@@H]1CN(Cc2ccc3oc(C(=O)NO)cc3c2)C[C@H](C)N1Cc1ccccc1
output: fulfilled

---
input: Consider C[C@@H]1CN(Cc2ccc(C(=O)NO)cc2)C[C@H](C)N1C(=O)c1cccs1 . Does its IC50 lie strictly below 300 nM?
output: fulfilled

---

Target: human recombinant HDAC6 (Homo sapiens, UniProt Q9UBN7)
Experiment: HDAC6 enzyme activity inhibition assay (in vitro, fluorimetric)
Conditions: human recombinant HDAC6, fluorimetric kit, same protocol as HDAC1
OUTCOME MEASURE: log10 of IC50 (log10 of the value in nM)
The base-10 logarithm of IC50, taken with IC50 in nM, is what appears here.

input: Reported log10 of IC50, molecule C[C@@H]1CN(Cc2ccc(C(=O)NO)cc2)C[C@H](C)N1C(=O)c1cccc(C2=CCC(C)(C)CC2)c1 : ____
output: 2.64

input: Please answer likewise for CCCCN(C(=O)N1C[C@@H](C)N(Cc2ccc(C(=O)NO)cc2)[C@@H](C)C1)c1ccccc1
output: 2.38

input: Please answer likewise for COc1ccccc1NC(=O)N1C[C@@H](C)N(Cc2ccc(C(=O)NO)cc2)[C@@H](C)C1
output: 2.70

---

Entries and their HDAC6 selectivity (fold) values follow.
Target: human recombinant HDAC6 (Homo sapiens, UniProt Q9UBN7)
Construct: purchased Calbiochem 382180
Sequence (Q9UBN7 1-1215): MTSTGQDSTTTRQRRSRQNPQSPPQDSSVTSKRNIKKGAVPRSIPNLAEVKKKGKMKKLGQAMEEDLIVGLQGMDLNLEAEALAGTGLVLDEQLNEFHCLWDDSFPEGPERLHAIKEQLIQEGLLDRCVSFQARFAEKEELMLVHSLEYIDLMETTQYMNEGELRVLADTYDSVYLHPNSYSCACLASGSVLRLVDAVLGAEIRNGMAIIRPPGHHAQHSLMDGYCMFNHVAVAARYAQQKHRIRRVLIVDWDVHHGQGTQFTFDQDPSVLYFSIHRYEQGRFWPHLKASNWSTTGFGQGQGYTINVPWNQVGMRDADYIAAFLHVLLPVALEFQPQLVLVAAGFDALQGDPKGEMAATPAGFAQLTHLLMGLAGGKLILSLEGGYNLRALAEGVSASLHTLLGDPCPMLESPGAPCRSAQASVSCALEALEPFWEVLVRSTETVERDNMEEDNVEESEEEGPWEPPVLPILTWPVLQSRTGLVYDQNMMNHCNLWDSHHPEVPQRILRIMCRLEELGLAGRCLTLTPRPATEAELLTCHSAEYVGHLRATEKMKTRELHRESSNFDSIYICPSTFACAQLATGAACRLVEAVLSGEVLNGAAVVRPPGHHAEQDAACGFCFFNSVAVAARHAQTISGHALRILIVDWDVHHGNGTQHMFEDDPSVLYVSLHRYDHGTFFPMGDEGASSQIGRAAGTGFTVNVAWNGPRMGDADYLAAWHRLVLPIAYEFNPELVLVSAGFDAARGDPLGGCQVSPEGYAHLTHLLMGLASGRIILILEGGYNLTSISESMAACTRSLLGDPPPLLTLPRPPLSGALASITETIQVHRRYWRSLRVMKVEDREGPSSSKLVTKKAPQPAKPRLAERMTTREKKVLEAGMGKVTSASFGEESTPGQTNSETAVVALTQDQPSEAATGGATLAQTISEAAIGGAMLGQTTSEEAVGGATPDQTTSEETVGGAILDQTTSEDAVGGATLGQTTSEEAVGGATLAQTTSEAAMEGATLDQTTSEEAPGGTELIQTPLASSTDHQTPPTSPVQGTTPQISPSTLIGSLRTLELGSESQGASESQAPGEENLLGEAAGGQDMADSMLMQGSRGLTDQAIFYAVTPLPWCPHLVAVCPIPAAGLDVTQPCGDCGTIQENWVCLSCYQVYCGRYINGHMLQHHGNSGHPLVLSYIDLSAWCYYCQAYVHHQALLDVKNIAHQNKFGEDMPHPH
Test: HDAC6 enzyme activity inhibition assay (in vitro, fluorimetric)
Type: biochemical
Conditions: HDAC6 selectivity over HDAC1
Write down the numeric answer in fold and omit the unit.

input: Reported HDAC6 selectivity (fold), compound C[C@@H]1CN(C(=O)NCc2cccc(F)c2)C[C@H](C)N1Cc1ccc(C(=O)NO)cc1 : ____
output: 2

input: Please answer likewise for CC(C)N1C[C@@H](C)N(Cc2ccc(C(=O)NO)cc2)[C@@H](C)C1
output: 31

---
input: Reported HDAC6 selectivity (fold), compound C[C@@H]1CN(C(=O)c2cccc(-c3ccnc(F)c3)c2)C[C@H](C)N1Cc1ccc(C(=O)NO)cc1 : ____
output: 3

Where these numbers come from: patent US10287255B2
